assay_procedure: Inhibitory activity against Cysteinyl protease was evaluated
Set-up: species or system Dermatophagoides pteronyssinus
pKi: −log10 of the molar value. Where a SMILES comes first, the peptide text is derived from it. The star is where a group is joined. Boc = CC(C)(C)OC(=O)*
parameter: pKi

[[record]]
compound = "CC(C)C[C@@H](C=O)NC(=O)[C@H](C)NC(=O)[C@@H](NC(=O)OC(C)(C)C)C(C)C (Boc-Val-Ala-Leu-aldehyde)"
numeric_value = 7.85

